Test system: biotinyl-Ile-oxazolone
Experiment: self-aminoacylation, catalytic enhancement (BIO) (fold over background); higher = more active; k-Seq, kA / k0A0; sequences stand for … in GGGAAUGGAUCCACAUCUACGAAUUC…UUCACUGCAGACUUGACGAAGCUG
This sample holds only a part of the variants without activity.
Given measured self-aminoacylation, output Yes if it is greater than or equal to 1 and No if not.

GCACACUUCAAGUAAUCGGUC [Fam1B.1 aminoacylation ribozyme variant] :: Yes

[Q] Is reported self-aminoacylation greater than or equal to 1 here: CUACUUCAAACAGUCGGACUG [Fam1A.1 aminoacylation ribozyme variant]
[A] No

[Q] Could you do the same for AUUCCCCUAGGUAAUCGGGUG [Fam2.2 aminoacylation ribozyme variant] , please?
[A] Yes

[Q] Could you do the same for AUUUACCUAGGUCAUCGCGUG [Fam2.2 aminoacylation ribozyme variant] , please?
[A] Yes

[Q] Could you do the same for AAGUUUGCUACUAGUCGCCAG [Fam3.1 aminoacylation ribozyme variant] , please?
[A] Yes

====

Test system: biotinyl-Trp-oxazolone
Assay: self-aminoacylation, catalytic enhancement (BWO) (fold over background); higher = more active; k-Seq, kA / k0A0; sequences stand for … in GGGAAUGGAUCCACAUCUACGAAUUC…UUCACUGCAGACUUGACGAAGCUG
Variants at the floor of the assay were thinned out.
quantity: self-aminoacylation

Sample records with self-aminoacylation:
CCACAAUUCAGGCAAUCGGUC [Fam1B.1 aminoacylation ribozyme variant] :: 0.94
CAACCUCAAACAAUCGGUCUG [Fam1A.1 aminoacylation ribozyme variant] :: 4.78
CUACUUCAAACGAUGGGUCUG [Fam1A.1 aminoacylation ribozyme variant] :: 0.62

Moving on to the next sequence.
[Q] May I ask what self-aminoacylation has been recorded for GUUCACCUAGGUUAUCGGGUG [Fam2.2 aminoacylation ribozyme variant] ?
[A] 5.35

====

System: biotinyl-Ile-oxazolone
Assay: self-aminoacylation, catalytic enhancement (BIO) (fold over background); higher = more active; k-Seq, kA / k0A0; sequences stand for … in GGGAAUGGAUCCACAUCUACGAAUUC…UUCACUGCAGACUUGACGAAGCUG
Variants at the floor of the assay were thinned out.
Given measured self-aminoacylation, output MET if it is greater than or equal to 0.9 and NOT MET if not.

[Q] Is reported self-aminoacylation greater than or equal to 0.9 here: AUUACCCUUGUCAUCCAGUGA [Fam2.1 aminoacylation ribozyme variant]
[A] MET

====

Parameter self-aminoacylation: see the listing below.
System: biotinyl-Val-oxazolone
Assay: self-aminoacylation, catalytic enhancement (BVO) (fold over background); higher = more active; k-Seq, kA / k0A0; sequences stand for … in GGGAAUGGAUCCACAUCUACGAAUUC…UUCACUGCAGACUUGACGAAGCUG
Fewer inactive variants are shown than the library holds.
Write no unit; give the number alone.

CUACUCCAAACAAUCGGCCUG [Fam1A.1 aminoacylation ribozyme variant] :: 1.42
AAGUGUACUAAUAGUCGCAAG [Fam3.1 aminoacylation ribozyme variant] :: 1.51
AUUCACCUAGGGCAUCCGGUG [Fam2.2 aminoacylation ribozyme variant] :: 8.74

[Q] May I ask what self-aminoacylation has been recorded for AUUCACCUGGGUCGUCGGGUG [Fam2.2 aminoacylation ribozyme variant] ?
[A] 2.48

[Q] Could you do the same for CCACACUUAAACCAAUCGGUC [Fam1B.1 aminoacylation ribozyme variant] , please?
[A] 0.756

[Q] Could you do the same for AAGUUUGCUGUUAGUCGCAAG [Fam3.1 aminoacylation ribozyme variant] , please?
[A] 0.855

[Q] Could you do the same for AAGUUUGCUAGUACUCGCAAG [Fam3.1 aminoacylation ribozyme variant] , please?
[A] 0.878

[Q] Could you do the same for AUUACCCUGGUCAUUUAGUGA [Fam2.1 aminoacylation ribozyme variant] , please?
[A] 5.82

[Q] Could you do the same for AAGUUAGCUAACAGUCGCAAG [Fam3.1 aminoacylation ribozyme variant] , please?
[A] 1.68

[Q] Could you do the same for GUUCACCUAGGUCAUCGGUUG [Fam2.2 aminoacylation ribozyme variant] , please?
[A] 1.11
